test: qHTS to identify inhibitors of the type 1 interferon - major histocompatibility complex class I in skeletal muscle: primary screen against the NCATS Mechanism Interrogation Plate v5.0 (MIPE) Libary (AID 1347411); settings: iHSKM cells + IFN-b, HiBiT-tagged MHC-I luminescence, 24 h; series mostly up to 45.8 µM; note: nearly all actives have a fitted effect of over 65% in size
Results filed as inconclusive are left out. Calls of active or inactive are those of the source. Calls come from the whole dose curve; as a rule, active = well fitted inhibition curve with a large enough effect; inconclusive = small, poorly fitted or top-dose-only effect; inactive = no such curve, though single readings can be large or run the other way.
Lab note: assign the record to one of 1 (yes) (active), 0 (no) (inactive)

Q) Assay result, entry "Cc1cc2c(C(C)C)c(O)c(O)c(C=O)c2c(O)c1-c1c(C)cc2c(C(C)C)c(O)c(O)c(C=O)c2c1O" — outcome?
A) 1 (yes)

Q) Dear all, I need the recorded test outcome for "NCCc1ccc(O)c(O)c1" , thank you.
A) 0 (no)

Q) Outcome logged for "Nc1cccc(S(=O)(=O)N2CCCN(S(=O)(=O)c3ccc4c(c3)OCCO4)CC2)c1" in this assay:
A) 0 (no)

Q) What outcome does the record of this test show for "Cc1[nH]c(=O)c(C#N)cc1-c1ccncc1" ?
A) 0 (no)

Q) Would you mind telling me which call this test gave Oc1ccc(C2CNCCc3c2cc(O)c(O)c3Cl)cc1 (stereo unspecified) ?
A) 0 (no)

Q) Which result was noted for this compound in the test: "Cc1n[nH]c(C)c1Cc1sc2c(c1C(=O)N1C[C@H](O)CO1)c(=O)n(C)c(=O)n2CC(C)C"
A) 0 (no)

Q) Please let me know the test result on file for COc1cc(Oc2ccnc3cc(OC)c(OC)cc23)ccc1NC(=O)NC(C)c1nccs1 (stereo unspecified) .
A) 0 (no)

Q) # outcome recorded in this test, key = "CS(=O)(=O)Oc1ccc2c(NC(N)=O)c(C(=O)c3ccc(Cl)cc3Cl)oc2c1"
A) 0 (no)

Q) For this compound, state the assay outcome: "Cc1cc([C@@H](C)Nc2ccccc2C(=O)O)c2nc(N3CCOCC3)cc(=O)n2c1"
A) 0 (no)

Q) Entry "CC(C)(N)C(=O)N[C@H](COCc1ccccc1)C(=O)N1CCC2(CC1)CN(S(C)(=O)=O)c1ccccc12" : call = ?
A) 0 (no)

Q) So what was the verdict on "Cc1[nH]c(=O)c(C#N)cc1-c1ccc2nccn2c1" in this test?
A) 0 (no)

Q) Record lookup: outcome of this test for "OCCn1cc(-c2cnc3nnn(Cc4ccc5ncccc5c4)c3n2)cn1" ?
A) 0 (no)

Q) Name the outcome recorded for "O=C(O)[C@@H](c1ccc(OCc2ccc3ccccc3n2)cc1)C1CCCC1" in the assay.
A) 0 (no)

Q) Recorded test outcome, item "C1COC(NC(C2CC2)C2CC2)=N1"
A) 0 (no)

Q) Hello, I am checking results. What call was entered for CCC(C)N(C)C(=O)c1cc2ccccc2c(-c2ccccc2Cl)n1 (stereo unspecified) ?
A) 0 (no)

Q) What outcome does the record of this test show for "CC(C)C[C@H](NC(=O)[C@@H](O)[C@H](N)Cc1ccccc1)C(=O)O" ?
A) 0 (no)

Q) # fetch the recorded call for "N#CC[C@H](C1CCCC1)n1cc(-c2ncnc3[nH]ccc23)cn1" here
A) 0 (no)

Q) Fill in: this test's call for "CCC(C)(C)C(=O)O[C@H]1C[C@@H](C)C=C2C=C[C@H](C)[C@H](CC[C@@H]3C[C@@H](O)CC(=O)O3)[C@H]21" is ___
A) 0 (no)

Q) I would be grateful if you could indicate the recorded call for "N[C@@H]1CONC1=O" .
A) 0 (no)

Q) // outcome(item) with item = "CC(C)(C)OC(=O)CN(Cc1ccc(Cl)cc1)Cc1ccc([N+](=O)[O-])s1"
A) 0 (no)

Q) Which outcome did this test record for the compound CC(c1cc2ccccc2s1)N(O)C(N)=O (stereo unspecified) ?
A) 0 (no)
